Where do the numbers come from? From PubChem BioAssay AID1159580.

- Test protocol: chemical genetic growth profiling, strain panel (AID 1159580);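 further: tested at 20 µM; growth read once vehicle control cultures reached saturation at 30 °C; 1 = growth at the plate median or of vehicle wells; lower values mean less growth of the strain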
- Condition description: S. cerevisiae deletion strains, growth OD, locus YDL035C, strain GPR1, stronger effect = lower value
The whole screen tested about 5,500 compounds, of which about 2,000 (36%) were called active. Not shown: some 18% with an inconclusive outcome. The list shows a part of the results.

{"Compound": "COc1ccccc1OCC(O)COC(N)=O (stereo not given)", "normalized growth": 1}
{"Compound": "NC(Cc1ccc(Cl)cc1)C(=O)O (stereo not given)", "normalized growth": 0.999}
{"Compound": "CNC(C)[C@@H]1CC[C@@H](N)[C@@H](OC2[C@@H](N)C[C@@H](N)[C@H](OC3OC[C@](C)(O)[C@H](NC)[C@H]3O)[C@H]2O)O1 (stereo not given in full)", "normalized growth": 1.01}
{"Compound": "O=C(O)c1cc(=O)c2ccccc2[nH]1", "normalized growth": 0.998}
{"Compound": "C=C(C)C1Cc2c(ccc3c(=O)c4c(oc23)COc2cc(OC)c(OC)cc2-4)O1 (stereo not given)", "normalized growth": 1.04}
{"Compound": "COP(=O)(NC(C)=O)SC (stereo not given)", "normalized growth": 1.01}
{"Compound": "COc1ccc(NS(=O)(=O)c2ccc(N)cc2)nn1", "normalized growth": 1.02}
{"Compound": "CCCCN(CC)c1c([N+](=O)[O-])cc(C(F)(F)F)cc1[N+](=O)[O-]", "normalized growth": 1.02}
{"Compound": "COc1cc(Cc2cnc(N)nc2N)cc(OC)c1OC", "normalized growth": 1.03}
{"Compound": "C[N+]12CCC(CC1)C(OC(=O)C(O)(c1ccccc1)c1ccccc1)C2 (stereo not given)", "normalized growth": 1.03}

----------
Quick reference for normalized growth among some molecules
- Test protocol: chemical genetic growth profiling, strain panel (AID 1159580);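 further: tested at 20 µM; growth read once vehicle control cultures reached saturation at 30 °C; 1 = growth at the plate median or of vehicle wells; lower values mean less growth of the strain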
- Condition description: S. cerevisiae deletion strains, growth OD, locus YDL108W, strain KIN28, stronger effect = lower value
Hit rate of the full screen: of about 5,500 compounds, about 2,000 (36%) were called active. Inconclusive results (about 18%) are left out. This is one part of the list.

{"Molecule": "Cc1ccc2nc3c(nc2c1)-c1ccccc1C3=O", "normalized growth": 0.938}
{"Molecule": "COC(=O)c1cccc(NS(=O)(=O)c2ccc(Cl)c(Cl)c2)c1", "normalized growth": 0.973}
{"Molecule": "COc1cc(C2CC(=S)Nc3ccccc3S2)cc(OC)c1OC (stereo unspecified)", "normalized growth": 0.978}
{"Molecule": "Cc1cc(N=Cc2cc(Cl)cc(Cl)c2O)no1", "normalized growth": 0.957}
{"Molecule": "O=C(Nc1cc(Cl)cc(Cl)c1)c1cc(Br)ccc1O", "normalized growth": 0.953}
{"Molecule": "O=C(Nc1ccc(F)cc1)c1cc(Br)ccc1O", "normalized growth": 0.897}
{"Molecule": "COC(=S)Nc1cc(Cl)cc(Cl)c1", "normalized growth": 0.943}
{"Molecule": "Cn1cc(Br)c(-c2cccc(NS(=O)(=O)c3ccc(Cl)cc3)c2)n1", "normalized growth": 0.999}
{"Molecule": "O=C(Nc1ccc(F)cc1F)c1cc(Cl)ccc1O", "normalized growth": 0.936}
{"Molecule": "CC1SC(c2cccnc2)N(c2ccc(Cl)cc2)C1=O (stereo unspecified)", "normalized growth": 0.951}
{"Molecule": "N/C(=N/OCc1c(F)cccc1Cl)c1ccc(Cl)cc1", "normalized growth": 0.922}
